biological target: BCL-XL (Homo sapiens); construct: endogenous in cells; host or cells: MOLT-4; test: BCL-XL degradation assay, western blot in MOLT-4 cells, 16 h; type: cell-based; conditions: western blot, MOLT-4 cells, 16 h; read-out: Bcl-xL WB in MOLT-4 degradation 16 h: Mean external-Abs DC50
Sequence (Q07817 whole entry): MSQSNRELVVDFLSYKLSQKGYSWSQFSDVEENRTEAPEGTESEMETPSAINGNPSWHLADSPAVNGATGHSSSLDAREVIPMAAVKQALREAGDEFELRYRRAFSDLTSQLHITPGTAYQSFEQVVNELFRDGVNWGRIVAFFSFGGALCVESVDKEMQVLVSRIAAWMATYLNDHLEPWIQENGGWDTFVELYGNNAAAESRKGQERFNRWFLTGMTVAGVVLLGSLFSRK
Reported DC50 values are given for each entry in this list.

Cc1ncsc1-c1ccc([C@H](C)NC(=O)[C@@H]2C[C@@H](O)CN2C(=O)[C@@H](NC(=O)CCCCCCC(=O)N2CCN(C[C@]3(C)CCC(c4ccc(Cl)cc4)=C(CN4CCN(c5ccc(C(=O)NS(=O)(=O)c6ccc(N[C@H](CCN7CCOCC7)CSc7ccccc7)c(S(=O)(=O)C(F)(F)F)c6)cc5)CC4)C3)CC2)C(C)(C)C)cc1 < 10 nM
Cc1cc([C@H](C(=O)N2C[C@H](O)C[C@H]2C(=O)NCc2ccc(-c3scnc3C)cc2OCC(=O)N2CCN(CC[C@H](CSc3ccccc3)Nc3ccc(S(=O)(=O)NC(=O)c4ccc(N5CCN(CC6=C(c7ccc(Cl)cc7)CCC(C)(C)C6)CC5)cc4)cc3S(=O)(=O)C(F)(F)F)CC2)C(C)C)on1 > 1000 nM
Cc1ncsc1-c1ccc([C@H](C)NC(=O)[C@@H]2C[C@@H](O)CN2C(=O)[C@@H](NC(=O)CCCCCC(=O)N2CCN(CC[C@H](CSc3ccccc3)Nc3ccc(S(=O)(=O)NC(=O)c4csc(N5CCc6cccc(C(=O)Nc7nc8ccccc8s7)c6C5)n4)cc3S(=O)(=O)C(F)(F)F)CC2)C(C)(C)C)cc1 10 to 100 nM
CC1(C)CCC(c2ccc(Cl)cc2)=C(CN2CCN(c3ccc(C(=O)NS(=O)(=O)c4ccc(N[C@H](CCN5CCN(C(=O)COc6ccccc6CNC(=O)[C@@H]6C[C@@H](O)CN6C(=O)[C@@H](NC(=O)C6(F)CC6)C(C)(C)C)CC5)CSc5ccccc5)c(S(=O)(=O)C(F)(F)F)c4)cc3)CC2)C1 > 1000 nM
Cc1ncsc1-c1ccc([C@H](C)NC(=O)[C@@H]2C[C@@H](O)CN2C(=O)[C@@H](NC(=O)CCCCCC(=O)N2CCN(CCCC3(Cn4ncc(-c5ccc(N6CCc7cccc(C(=O)Nc8nc9ccccc9s8)c7C6)nc5C(=O)O)c4C)CCCCC3)CC2)C(C)(C)C)cc1 100 to 500 nM

// DC50 lookup, compound = Cc1ncsc1-c1ccc([C@H](C)NC(=O)[C@@H]2C[C@@H](O)CN2C(=O)[C@@H](NC(=O)CCCCCCNC(=O)c2nc(N3CCc4cccc(C(=O)Nc5nc6ccccc6s5)c4C3)ccc2-c2cnn(CC3CCCCC3)c2C)C(C)(C)C)cc1 , result: 10 to 100 nM

Value of measured DC50 for the entry Cc1ncsc1-c1ccc([C@H](C)NC(=O)[C@@H]2C[C@@H](O)CN2C(=O)[C@@H](NC(=O)CCCC(=O)N(C)CCCc2cccc(F)c2OCCCc2sc(N3CCc4cccc(C(=O)Nc5nc6ccccc6s5)c4C3)nc2C(=O)O)C(C)(C)C)cc1 : 100 to 500 nM
